Tested on: HCC-15
assay remarks: relative viability (nuclei count vs DMSO), 5 days (fraction); higher = more cells survive
condition parameters: first compound 0.5 µM
relative viability values, listed per item
reported metric: relative viability

1) Nc1ccn([C@@H]2O[C@H](CO)[C@@H](O)[C@@H]2O)c(=O)n1 [Cytarabine] + COc1cccc2cc(-c3nc([C@H]4CC[C@H](C(=O)O)CC4)n4ncnc(N)c34)[nH]c12 [OSI-027] (partner 0.5 µM) :: 0.412
2) COc1cc2nccc(Oc3ccc(NC(=O)Nc4cc(C)on4)c(Cl)c3)c2cc1OC [Tivozanib] + Cc1cc(Nc2cc(N3CCN(C)CC3)nc(Sc3ccc(NC(=O)C4CC4)cc3)n2)n[nH]1 [Tozasertib] (partner 0.1 µM) :: 0.354
3) COc1cc2nccc(Oc3ccc(NC(=O)Nc4cc(C)on4)c(Cl)c3)c2cc1OC [Tivozanib] + Nc1nc2[nH]cc(CCc3ccc(C(=O)N[C@@H](CCC(=O)O)C(=O)O)cc3)c2c(=O)[nH]1 [Pemetrexed] (partner 0.2 µM) :: 0.238
4) Nc1ccn([C@@H]2O[C@H](CO)[C@@H](O)[C@@H]2O)c(=O)n1 [Cytarabine] + COc1cc2c(Oc3ccc(NC(=O)C4(C(=O)Nc5ccc(F)cc5)CC4)cc3F)ccnc2cc1OCCCN1CCOCC1 [Foretinib] (partner 0.25 µM) :: 0.706
5) COc1cc2nccc(Oc3ccc(NC(=O)Nc4cc(C)on4)c(Cl)c3)c2cc1OC [Tivozanib] + Cc1nc(Nc2ncc(C(=O)Nc3c(C)cccc3Cl)s2)cc(N2CCN(CCO)CC2)n1 [Dasatinib] (partner 0.075 µM) :: 0.607
6) COc1cc2nccc(Oc3ccc(NC(=O)Nc4cc(C)on4)c(Cl)c3)c2cc1OC [Tivozanib] + CC1(C)CCC(c2ccc(Cl)cc2)=C(CN2CCN(c3ccc(C(=O)NS(=O)(=O)c4ccc(N[C@H](CCN5CCOCC5)CSc5ccccc5)c(S(=O)(=O)C(F)(F)F)c4)cc3)CC2)C1 [Navitoclax] (partner 0.5 µM) :: 0.728
7) COc1cc2nccc(Oc3ccc(NC(=O)Nc4cc(C)on4)c(Cl)c3)c2cc1OC [Tivozanib] + CC(=O)c1c(C)c2cnc(Nc3ccc(N4CCNCC4)cn3)nc2n(C2CCCC2)c1=O [Palbociclib] (partner 0.5 µM) :: 0.672
8) Nc1ccn([C@@H]2O[C@H](CO)[C@@H](O)[C@@H]2O)c(=O)n1 [Cytarabine] + Nc1nc2[nH]cc(CCc3ccc(C(=O)N[C@@H](CCC(=O)O)C(=O)O)cc3)c2c(=O)[nH]1 [Pemetrexed] (partner 0.2 µM) :: 0.222
9) COc1cc2nccc(Oc3ccc(NC(=O)Nc4cc(C)on4)c(Cl)c3)c2cc1OC [Tivozanib] + O=C(CCCCCCC(=O)Nc1ccccc1)NO [Vorinostat] (partner 1 µM) :: 0.886
